B1: MLH1 (parent)
chain: YAHQMVRTDSREQKLDAFLQPLSK

Variants of: B1
ASSAY OVERVIEW: protein stability index of a GFP-peptide fusion (GPS, HEK-293T) (PSI 1-6); higher = more stable;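 note: lentivirally expressed fusions sorted by FACS into six bins by GFP to DsRed ratio, PSI derived from sequencing read proportions per bin multiplied by bin number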
EXPERIMENTAL CONDITIONS: c terminus: a fixed tail appended
The variants listed here are annotated with their protein stability index.
QUANTITY MEASURED: protein stability index

>>> reported_value("S10M")
2.53
>>> reported_value("Q4V")
2.37
>>> reported_value("D16I")
2.16
>>> reported_value("M5E")
3.31
>>> reported_value("Y1F")
2.12
>>> reported_value("K24E")
3.28
>>> reported_value("L19K")
3.16
>>> reported_value("A17R")
2.66
>>> reported_value("T8G")
2.69
